Experiment: ATG_Ets_CIS: Attagene CIS-FACTORIAL HepG2 Assay for human Erythroblast Transformation Specific (ETS) (AID 2282941)
Settings: HepG2 ETS cis-reporter transcription, actives raise or lower the signal
Active and inactive are the calls of the source. Rule for the calls: active = hit-call score of the fitted dose curve at least 0.9, where 1 is the maximum; inactive = score below 0.9.
Outcome (select one): 1 = active, -1 = inactive

INSERT INTO assay_data (compound_structure, classification) VALUES
  ('N#Cc1c[nH]cc1-c1cccc2c1OC(F)(F)O2', 1),
  ('C=CCOC(=O)C(C)(C)OC(=O)c1cc(-n2c(=O)cc(C(F)(F)F)n(C)c2=O)ccc1Cl', -1);

[Q] Recorded call for CNC(=O)Oc1cccc2ccccc12 ?
[A] -1

###

Read-out: Pselectin, SELP (gene 6403)
Experiment: BSK_4H_Pselectin: BioMAP Diversity Plus: 4H Assay for Pselectin Biomarker Activity (AID 2283026)
Details: primary human endothelial cells (HUVEC); actives raise or lower the signal
Active and inactive are the calls of the source. Rule for the calls: active = hit-call score of the fitted dose curve at least 0.9, where 1 is the maximum; inactive = score below 0.9.
Select the correct class. Options are 1.0 (active), 0.0 (inactive) and nothing else.

Solved entries:
INSERT INTO assay_data (compound, classification) VALUES
  ('COC(=O)c1c(C(F)F)nc(C(F)(F)F)c(C2=NCCS2)c1CC(C)C', 0.0),
  ('CS(=O)(=O)c1ccc(C(=O)C2C(=O)CCCC2=O)c([N+](=O)[O-])c1', 0.0),
  ('CS(=O)(=O)c1cc(C(F)(F)F)ccc1C(=O)c1cnoc1C1CC1', 0.0),
  ('CC1(C)CCC(=Cc2ccc(Cl)cc2)C1(O)Cn1cncn1 (centres undefined)', 0.0),
  ('CSC(=O)c1c(C(F)F)nc(C(F)(F)F)c(C(=O)SC)c1CC(C)C', 1.0),
  ('CCOc1nc(C(Cl)(Cl)Cl)ns1', 0.0),
  ('COC(=O)N(C(=O)N1CO[C@@]2(C(=O)OC)Cc3cc(Cl)ccc3C2=N1)c1ccc(OC(F)(F)F)cc1', 1.0),
  ('CCCCC(O)(Cn1cncn1)c1ccc(Cl)cc1Cl (centres undefined)', 0.0);

Now, please, on to the next compound.
[Q] So what was the verdict on CO/N=C(/C1=NOCCO1)c1ccccc1Oc1ncnc(Oc2ccccc2Cl)c1F in this test?
[A] 0.0

###

Assay: BSK_3C_uPAR: BioMAP Diversity Plus: 3C Assay for Urokinase-type plasminogen activator receptor (uPAR) Biomarker Activity (AID 2282998)
Conditions: BioMAP 3C HUVEC, uPAR biomarker ELISA; actives raise or lower the signal
The source made the active and inactive calls. Rule for the calls: active = hit-call score of the fitted dose curve at least 0.9, where 1 is the maximum; inactive = score below 0.9.
Write down one outcome, taken from active, inactive

INSERT INTO assay_data (compound_structure, classification) VALUES
  ('CC(C)NC(=O)N1CC(=O)N(c2cc(Cl)cc(Cl)c2)C1=O', 'active'),
  ('Nc1cnn(-c2ccccc2)c(=O)c1Cl', 'inactive');

Now turn to the next compound.
[Q] Look up the recorded call for N#Cc1c(Cl)cccc1Cl in this test.
[A] inactive

###

Read-out: Interleukin-8 (IL8), CXCL8 (gene 3576)
Test: BSK_SAg_IL8: BioMAP Diversity Plus: SAg Assay for Interleukin-8 (IL8) Biomarker Activity (AID 2283094)
Conditions: primary human HUVEC with PBMC; actives raise or lower the signal
The source made the active and inactive calls. Rule for the calls: active = hit-call score of the fitted dose curve at least 0.9, where 1 is the maximum; inactive = score below 0.9.
Classes to choose from: t for active, f for inactive

Past entries and their recorded results:
INSERT INTO assay_data (molecule, classification) VALUES
  ('COCC(C)N(C(=O)CCl)c1c(C)csc1C (configuration not stated)', 'f'),
  ('CCN(CC)c1nc(C)cc(OP(=S)(OC)OC)n1', 't'),
  ('N#CN=C1SCCN1Cc1ccc(Cl)nc1', 'f');

[Q] Lab log entry: CCCC(=NOCC)C1=C(O)CC(CC(C)SCC)CC1=O (configuration not stated) — outcome as called in the assay?
[A] f

[Q] Hi, do you know how O=P(O)(O)CCCl came out in this test?
[A] f

[Q] Just curious, what result did CCOc1cc(C(C)(C)C)ccc1C1COC(c2c(F)cccc2F)=N1 (configuration not stated) get here?
[A] t

[Q] Each molecule tested received a call. Report the one for COCc1cnc(C2=NC(C)(C(C)C)C(=O)N2)c(C(=O)O)c1 (configuration not stated) .
[A] f
